System: BT474 [human breast carcinoma, overexpressing HER2 (ErbB2)]
Test Method Notes: In vitro tumor cell proliferation assay (Cell Titer-Glo luminescent cell viability), BT474 cells
Format: cell-based
Recorded Conditions: BT-474, 72 h, 72 hours of drug exposure, Cell Titer-Glo readout, read-out: IC50, anti-proliferative activity in BT474 cells
Where a name gives a salt, the structure may show the parent alone.
Observable: IC50

Worked cases, answers included:
Molecule: O=C(O)Cc1ccc2c(c1)sc1ncnc(Nc3ccc(OCc4cscn4)c(Cl)c3)c12
IC50: ≤ 5000 nM

Molecule: Fc1cccc(COc2ccc(Nc3ncnc4sc5cc(CCNCCN6CCOCC6)ccc5c34)cc2Cl)c1
IC50: ≤ 500 nM

Molecule: COCCN(CCOC)CCc1ccc2c(c1)sc1ncnc(Nc3ccc(OCc4ccccn4)c(Cl)c3)c12 [Example 93, trifluoroacetate]
IC50: ≤ 500 nM

Molecule: CN1CCN(C(=O)Cc2ccc3c(c2)sc2ncnc(Nc4ccc(OCc5cccc(F)c5)c(Cl)c4)c23)CC1
IC50: ≤ 500 nM

Molecule: [O-][S+]1CCN(CCc2ccc3c(c2)sc2ncnc(Nc4ccc(OCc5cccc(F)c5)c(Cl)c4)c23)CC1
IC50: ≤ 5000 nM

Molecule: COCCNC(=O)/C=C/c1ccc2c(c1)sc1ncnc(Nc3ccc(OCc4cccc(F)c4)c(Cl)c3)c12
IC50: ≤ 500 nM

## Input Using the record for CCOC(=O)Cc1ccc2c(c1)sc1ncnc(Nc3ccc(OCc4ccccn4)c(Cl)c3)c12 [Example 81, acetate trifluoroacetate] , report its IC50.
## Output ≤ 5000 nM

## Input Using the record for "CN(C)CCNC(=O)CCc1ccc2c(c1)sc1ncnc(Nc3ccc(OCc4cccc(F)c4)c(Cl)c3)c12" , report its IC50.
## Output ≤ 5000 nM

## Input Using the record for "Fc1cccc(COc2ccc(Nc3ncnc4sc5cc(CCN6CCOCC6)ccc5c34)cc2Cl)c1" , report its IC50.
## Output ≤ 500 nM

## Input Using the record for "O=C(Cc1ccc2c(c1)sc1ncnc(Nc3ccc(OCc4cccc(F)c4)c(Cl)c3)c12)NCCOCCO" , report its IC50.
## Output ≤ 500 nM

## Input Using the record for CCOC(=O)C(Oc1ccc2c(c1)sc1ncnc(Nc3ccc(OCc4cccc(F)c4)c(Cl)c3)c12)C(=O)OCC [Example 42, trifluoroacetate] , report its IC50.
## Output ≤ 5000 nM

## Input Using the record for OCC(CO)Oc1ccc2c(c1)sc1ncnc(Nc3ccc(OCc4cccc(F)c4)c(Cl)c3)c12 [Example 43, trifluoroacetate] , report its IC50.
## Output ≤ 500 nM

## Input Using the record for O=C(Cc1ccc2c(c1)sc1ncnc(Nc3ccc(OCc4cccc(F)c4)c(Cl)c3)c12)NCC1CCCNC1 (centres unmarked) [Example 33, hydrochloride] , report its IC50.
## Output ≤ 500 nM

## Input Using the record for "O=C(Cc1ccc2c(c1)sc1ncnc(Nc3ccc(OCc4ccccn4)c(Cl)c3)c12)N1CCC[C@@H]1CO" , report its IC50.
## Output ≤ 5000 nM

###

System: BT474 [human breast carcinoma, overexpressing HER2 (ErbB2)]
Test Method Notes: In vitro tumor cell proliferation assay (Cell Titer-Glo luminescent cell viability), BT474 cells
Assay type: cell-based
Recorded Conditions: BT-474, 72 h, 72 hours of drug exposure, Cell Titer-Glo readout, read-out: IC50, anti-proliferative activity in BT474 cells
pIC50: −log10 of the molar value. Counter-ions that a name gives are not always drawn.
Observable: pIC50

Worked cases, answers included:
Molecule: COCCN(C)C(=O)Cc1ccc2c(c1)sc1ncnc(Nc3ccc(OCc4ccccn4)c(Cl)c3)c12
pIC50: ≥ 5.30

Molecule: Fc1cccc(COc2ccc(Nc3ncnc4sc5cc(OCCn6cccc6)ccc5c34)cc2Cl)c1
pIC50: ≥ 5.30

## Input Using the record for Clc1cc(Nc2ncnc3sc4cc(N5CCOCC5)ccc4c23)ccc1OCc1ccccn1 [Example 76, trifluoroacetate] , report its pIC50.
## Output ≥ 6.30

## Input Using the record for "CN(C)[C@H]1CCN(C(=O)Cc2ccc3c(c2)sc2ncnc(Nc4ccc5c(cnn5Cc5cccc(F)c5)c4)c23)C1" , report its pIC50.
## Output ≥ 6.30

## Input Using the record for "CN(C)[C@H]1CCN(C(=O)Cc2ccc3c(c2)sc2ncnc(Nc4ccc(OCc5cscn5)c(Cl)c4)c23)C1" , report its pIC50.
## Output ≥ 6.30

## Input Using the record for OCCNCCc1ccc2c(c1)sc1ncnc(Nc3ccc(OCc4ccccn4)c(Cl)c3)c12 [Example 88, trifluoroacetate] , report its pIC50.
## Output ≥ 6.30

## Input Using the record for OC[C@@H](O)COc1ccc2c(c1)sc1ncnc(Nc3ccc(OCc4cccc(F)c4)c(Cl)c3)c12 [Example 147, hydrochloride] , report its pIC50.
## Output ≥ 6.30

## Input Using the record for "OC[C@H](O)COc1ccc2c(c1)sc1ncnc(Nc3ccc(OCc4ccccn4)c(Cl)c3)c12" , report its pIC50.
## Output ≥ 6.30

## Input Using the record for "COC(=O)/C=C/c1ccc2c(c1)sc1ncnc(Nc3ccc(OCc4cccc(F)c4)c(Cl)c3)c12" , report its pIC50.
## Output ≥ 5.30

## Input Using the record for "O=C(O)/C=C/c1ccc2c(c1)sc1ncnc(Nc3ccc(OCc4cccc(F)c4)c(Cl)c3)c12" , report its pIC50.
## Output ≥ 5.30

## Input Using the record for "O=C(O)Cc1ccc2c(c1)sc1ncnc(Nc3ccc4c(cnn4Cc4cccc(F)c4)c3)c12" , report its pIC50.
## Output ≥ 5.30

## Input Using the record for "CN(C)CCNC(=O)/C=C/c1ccc2c(c1)sc1ncnc(Nc3ccc(OCc4cccc(F)c4)c(Cl)c3)c12" , report its pIC50.
## Output ≥ 5.30

## Input Using the record for "Fc1cccc(COc2ccc(Nc3ncnc4sc5cc(OCCCN6CCOCC6)ccc5c34)cc2Cl)c1" , report its pIC50.
## Output ≥ 6.30

## Input Using the record for COC1CCN(CCc2ccc3c(c2)sc2ncnc(Nc4ccc(OCc5cccc(F)c5)c(Cl)c4)c23)C1 (stereo not drawn) , report its pIC50.
## Output ≥ 6.30

## Input Using the record for CS(=O)(=O)CCNC(=O)C(O)C(O)c1ccc2c(c1)sc1ncnc(Nc3ccc(OCc4cccc(F)c4)c(Cl)c3)c12 (stereo not drawn) , report its pIC50.
## Output ≥ 6.30

###

System: BT474 [human breast carcinoma, overexpressing HER2 (ErbB2)]
Test Method Notes: In vitro tumor cell proliferation assay (Cell Titer-Glo luminescent cell viability), BT474 cells
Format: cell-based
Recorded Conditions: BT-474, 72 h, 72 hours of drug exposure, Cell Titer-Glo readout, read-out: IC50, anti-proliferative activity in BT474 cells
Structures can show the parent of a compound that is named as a salt.
Observable: IC50

Worked cases, answers included:
Compound: COC[C@@H]1CCCN1C(=O)Cc1ccc2c(c1)sc1ncnc(Nc3ccc(OCc4ccccn4)c(Cl)c3)c12 [Example 107]
IC50: ≤ 5000 nM

Compound: CCOC(=O)C(C(=O)OCC)c1ccc2c(c1)sc1ncnc(Nc3ccc(OCc4cccc(F)c4)c(Cl)c3)c12 [Example 45]
IC50: ≤ 5000 nM

Compound: CN1CCN(C(=O)CCc2ccc3c(c2)sc2ncnc(Nc4ccc(OCc5cccc(F)c5)c(Cl)c4)c23)CC1 [Example 66]
IC50: ≤ 5000 nM

## Input Using the record for OCC(O)c1ccc2c(c1)sc1ncnc(Nc3ccc4c(cnn4Cc4cccc(F)c4)c3)c12 (stereo not drawn) [Example 115] , report its IC50.
## Output ≤ 500 nM

## Input Using the record for O=C(Cc1ccc2c(c1)sc1ncnc(Nc3ccc(OCc4cscn4)c(Cl)c3)c12)NN1CCOCC1 [Example 144] , report its IC50.
## Output ≤ 5000 nM

## Input Using the record for CN1CCN(C(=O)Cc2ccc3c(c2)sc2ncnc(Nc4ccc5c(cnn5Cc5cccc(F)c5)c4)c23)CC1 [Example 124] , report its IC50.
## Output ≤ 500 nM

## Input Using the record for OCCc1ccc2c(c1)sc1ncnc(Nc3ccc4c(cnn4Cc4ccccn4)c3)c12 [Example 132] , report its IC50.
## Output ≤ 500 nM

## Input Using the record for CN1CCN(c2ccc3c(c2)sc2ncnc(Nc4ccc(OCc5ccccn5)c(Cl)c4)c23)CC1 [Example 77, trifluoroacetate] , report its IC50.
## Output ≤ 500 nM

## Input Using the record for OC[C@@H](O)COc1ccc2c(c1)sc1ncnc(Nc3ccc(OCc4ccccn4)c(Cl)c3)c12 [Example 111] , report its IC50.
## Output ≤ 500 nM

## Input Using the record for CCNCCc1ccc2c(c1)sc1ncnc(Nc3ccc(OCc4ccccn4)c(Cl)c3)c12 [Example 90, trifluoroacetate] , report its IC50.
## Output ≤ 500 nM

## Input Using the record for O=C(Cc1ccc2c(c1)sc1ncnc(Nc3ccc(OCc4ccccn4)c(Cl)c3)c12)N1CCCC1 [Example 99] , report its IC50.
## Output ≤ 5000 nM

## Input Using the record for CCN1CCN(CCNC(=O)Cc2ccc3c(c2)sc2ncnc(Nc4ccc(OCc5cscn5)c(Cl)c4)c23)CC1 [Example 146] , report its IC50.
## Output ≤ 500 nM
